Readings of pIC50 for the listed molecules
- systemUnderTest: D(2) dopamine receptor (Rattus norvegicus)
- Sequence (P61169 whole entry): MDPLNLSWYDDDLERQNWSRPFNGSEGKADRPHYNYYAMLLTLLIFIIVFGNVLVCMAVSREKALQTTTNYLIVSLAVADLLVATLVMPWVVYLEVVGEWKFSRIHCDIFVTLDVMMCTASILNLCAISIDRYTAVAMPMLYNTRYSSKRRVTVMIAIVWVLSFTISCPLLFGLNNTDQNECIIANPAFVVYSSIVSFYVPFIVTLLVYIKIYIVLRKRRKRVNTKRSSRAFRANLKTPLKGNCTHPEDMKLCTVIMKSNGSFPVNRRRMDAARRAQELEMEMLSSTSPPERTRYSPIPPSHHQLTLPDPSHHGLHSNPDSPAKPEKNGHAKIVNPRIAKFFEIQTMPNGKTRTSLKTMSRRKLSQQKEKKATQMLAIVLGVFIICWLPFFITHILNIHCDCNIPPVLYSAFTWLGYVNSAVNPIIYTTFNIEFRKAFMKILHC
- runDescription: Inhibitory concentration against Dopamine receptor D2 (Inactive at >1000 nM concentration)
pIC50: −log10 of the molar value.

In the examples that follow, each entry is paired with its recorded pIC50.
1) COc1cc2nc(N3CCN(C(=O)CC(=O)c4ccccc4)CC3)nc(N)c2cc1OC : < 6.00
2) COc1cc2nc(N(C)CCC(c3ccccc3)c3ccccc3)nc(N)c2cc1OC : < 6.00
3) COc1cc2nc(N3CCN(C(=O)CCC(=O)c4ccccc4)CC3)nc(N)c2cc1OC : < 6.00

-- ask Look up and state reported pIC50 for COc1cc2nc(N3CCN(C(=O)COc4ccccc4OC)CC3)nc(N)c2cc1OC
-- reply < 6.00

-- ask Look up and state reported pIC50 for COc1cc2nc(N[C@H](C)Cc3ccc(OC)c(S(N)(=O)=O)c3)nc(N)c2cc1OC
-- reply < 6.00
